Data provenance: ChEMBL document CHEMBL3988442

test.target: Arginase-2, mitochondrial (Homo sapiens)
Sequence (whole entry): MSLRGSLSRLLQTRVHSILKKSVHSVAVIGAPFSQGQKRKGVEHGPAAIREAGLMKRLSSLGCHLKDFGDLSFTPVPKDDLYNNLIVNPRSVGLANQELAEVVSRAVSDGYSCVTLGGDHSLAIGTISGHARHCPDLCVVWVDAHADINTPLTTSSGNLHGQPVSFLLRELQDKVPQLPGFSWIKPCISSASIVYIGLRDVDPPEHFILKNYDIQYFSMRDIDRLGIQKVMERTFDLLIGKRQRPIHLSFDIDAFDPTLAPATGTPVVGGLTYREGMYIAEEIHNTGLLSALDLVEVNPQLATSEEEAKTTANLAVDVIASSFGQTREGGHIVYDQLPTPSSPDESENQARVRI
protocol: in vitro enzyme assay to detect the production of urea directly proportional to the activity of Arginase II; further: in the data most compounds retested in dose-response had high values
Format: functional
Set-up: scale not given: direction of the effect not stated beside the values
applied.conditions: 33.3 µM
Assign Percent Effect to each entry below.
Give bare numbers, in %.

// solved cases for Percent Effect follow
CCc1nc(CN(Cc2cccs2)CC2CCCO2)no1 (stereo not drawn)
2.37
Cc1cnn(CCC(=O)N2CCN(c3ncccc3Cl)CC2)c1
1.94
CCc1ccc(C(=O)N2CCC(c3nncn3CC)CC2)cc1
-5.92
CC(=O)N(Cc1ncc(C)o1)C1CCN(CCCc2cnn(C)c2)C1 (stereo not drawn)
-3.99
Cc1cccc(CN2CCN(Cc3ccccc3)CC(O)C2)n1 (stereo not drawn)
-1.43

Quick request: Percent Effect for each listed item, please.
1. COCCN1CCC(CN(CC2CCCO2)C(=O)CCNC(C)=O)CC1 (stereo not drawn)
2. Cc1ncsc1C(=O)NC1CCN(Cc2ccc(C#N)cc2)CC1
3. O=C(NC1CC(=O)N(Cc2cccc(F)c2)C1)c1ccncc1 (stereo not drawn)

Result string:
1. 0.883
2. -2.49
3. -0.476

Quick request: Percent Effect for each listed item, please.
1. CS(=O)(=O)N1CC[C@H]2C[C@@H](C(=O)N3CCOCC3)O[C@@H]2C1
2. COc1ccc(CN2CCn3cc(Cn4cccn4)nc3C2)cc1
3. CC(=O)N1CCN(C(=O)CN2CCc3c(ncn3C3CC3)C2)CC1
4. Cc1ccc(CNC2CCN(CCc3ccncc3)CC2)cc1C
5. O=C(NCCNc1ccc(C(F)(F)F)cn1)c1ccc(Br)cc1F
6. COc1ccc(CN2CC[C@H]3[C@H]2CCN3C(=O)c2cnn(C)c2)cc1

Result string:
1. -53.2
2. -3.23
3. 5.38
4. 18.8
5. -2.74
6. 2.87

Quick request: Percent Effect for each listed item, please.
1. CCC1=N[C@@]2(CC[C@@H]3CN(C(=O)NCc4ccccc4)C[C@@H]32)C(=O)N1C
2. O=C(c1cccc(N2CCCC2=O)c1)N1CCCC(n2cncn2)C1 (stereo not drawn)
3. COc1cccc(OCC2CCCN(C(C)=O)C2)c1 (stereo not drawn)
4. O=C(O)c1csc(S(=O)(=O)N2CCCc3ccc(F)cc32)c1

Result string:
1: -2.02; 2: -1.6; 3: -3.1; 4: 0

====

Assign Percent Effect to each entry below.
test.target: Sialic acid-binding Ig-like lectin 9 (Homo sapiens)
protocol: Hs-Siglec9 ALPHAscreen SOP 20170721
Parameters: scale not given: direction of the effect not stated beside the values
applied.conditions: 10 µM
One number for each entry, in %.

Quick request: Percent Effect for each listed item, please.
1. Cc1cnc(CN2CCCC(c3cc(C(F)(F)F)[nH]n3)C2)cn1 (centres undefined)
2. CCC(O)CN1CCN(C(=O)c2cccn2Cc2ccccc2)CC1 (centres undefined)
3. O=C(COC(=O)Cc1cccs1)NCc1cccc(NC(=O)C2CC2)c1
4. CCN(CC)C(=O)CCNC(=O)Cc1nc(-c2ccco2)oc1C

Result string:
[2.93, 3.91, -10.9, -1.71]
